system: TK-10; assay: NCI tumour cell line growth inhibition, 48 h
Calls of active or inactive are those of the source. No stated cut-off is given here; in the data, active = GI50 up to about 1.1 µM and inactive = higher.
readout: GI50

[[record]]
smiles_text = "Cc1ccc(/C=C/C(=O)C(C)C)cc1"
result = "> 100 µM (inactive)"

[[record]]
smiles_text = "COc1c(OC)c(OC)c2c(=O)c(OC)c(-c3ccc4c(c3)OCO4)oc2c1OC"
result = "> 100 µM (inactive)"

[[record]]
smiles_text = "CC(C)C[C@H](NC(=O)[C@H](Cc1cccc2ccccc12)NS(=O)(=O)c1cccc2cccnc12)B(O)O"
result = "< 0.0285 µM (active)"

[[record]]
smiles_text = "O=[N+]([O-])c1ccc(S(=O)(=O)N=Ic2ccccc2)cc1"
result = "> 100 µM (inactive)"

